- Measured on: Alpha-2B adrenergic receptor (Homo sapiens) (UniProt P18089)
- Sequence (whole entry): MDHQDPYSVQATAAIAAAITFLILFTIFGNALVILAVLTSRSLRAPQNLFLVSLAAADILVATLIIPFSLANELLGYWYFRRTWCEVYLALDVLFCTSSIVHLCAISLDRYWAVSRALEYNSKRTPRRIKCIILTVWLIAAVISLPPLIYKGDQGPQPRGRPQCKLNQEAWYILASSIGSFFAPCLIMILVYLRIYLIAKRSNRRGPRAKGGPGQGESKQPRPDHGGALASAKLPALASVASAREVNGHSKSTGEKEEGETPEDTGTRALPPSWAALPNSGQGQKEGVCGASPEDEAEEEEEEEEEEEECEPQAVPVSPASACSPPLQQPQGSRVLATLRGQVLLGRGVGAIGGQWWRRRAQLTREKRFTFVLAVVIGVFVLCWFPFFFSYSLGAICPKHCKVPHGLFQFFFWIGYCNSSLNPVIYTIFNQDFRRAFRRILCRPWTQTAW
- Procedure summary: Intrinsic activity at human recombinant adrenergic alpha2B receptor expressed in CHO cells relative to (-)-noradrenaline
- Format: cell-based
# Lookup of reported Intrinsic activity keyed by entry
Answer with a bare number; do not write a unit.

Example entries begin here.
CC(Oc1ccccc1C1CCCC1)C1=NCCN1 (stereo not drawn)	0.7
CC(Oc1ccccc1-c1ccccc1)C1=NCCN1 (stereo not drawn)	0.5
CC(Oc1ccccc1C1CCCCC1)C1=NCCN1 (stereo not drawn)	0.7
COC1(C2=NCCN2)COc2c(cccc2-c2ccccc2)O1 (stereo not drawn)	0.5

Per the records, this compound ( CC(Oc1ccccc1/C=N/O)C1=NCCN1 (stereo not drawn) ) has Intrinsic activity equal to 0.5

Per the records, this compound ( c1ccc(-c2cccc3c2OCC(C2=NCCN2)O3)cc1 (stereo not drawn) ) has Intrinsic activity equal to 0.7

Per the records, this compound ( CC(Oc1ccccc1/C=N/OCc1ccccc1)C1=NCCN1 (stereo not drawn) ) has Intrinsic activity equal to 0.8

Per the records, this compound ( c1ccc(-c2cccc3c2OC(C2=NCCN2)CO3)cc1 (stereo not drawn) ) has Intrinsic activity equal to 0.45

----------
- Measured on: Alpha-2A adrenergic receptor (Homo sapiens)
- Procedure summary: Intrinsic activity at human recombinant adrenergic alpha2A receptor expressed in CHO cells assessed as stimulation of extracellular acidification relative to (-)-noradrenaline
- Format: cell-based
Readout type: Intrinsic activity
Answer with a bare number; do not write a unit.

Example entries begin here.
CC(Oc1ccccc1C1CCCCC1)C1=NCCN1 (stereo not given)	0.6
CC(Oc1ccccc1C1CCCC1)C1=NCCN1 (stereo not given)	0.65
CC(Oc1ccccc1/C=N/O)C1=NCCN1 (stereo not given)	0.8
c1ccc(-c2ccccc2OC(C2=NCCN2)c2ccccc2)cc1 (stereo not given)	0.45

Next molecule, Intrinsic activity to be filled in.
Per the records, this molecule ( CC(Oc1ccccc1-c1ccccc1)C1=NCCN1 (stereo not given) [BIPHENYLINE] ) has Intrinsic activity equal to 0.7

----------
- Measured on: Alpha-2A adrenergic receptor (Homo sapiens) (UniProt P08913)
- Sequence (P08913 whole entry): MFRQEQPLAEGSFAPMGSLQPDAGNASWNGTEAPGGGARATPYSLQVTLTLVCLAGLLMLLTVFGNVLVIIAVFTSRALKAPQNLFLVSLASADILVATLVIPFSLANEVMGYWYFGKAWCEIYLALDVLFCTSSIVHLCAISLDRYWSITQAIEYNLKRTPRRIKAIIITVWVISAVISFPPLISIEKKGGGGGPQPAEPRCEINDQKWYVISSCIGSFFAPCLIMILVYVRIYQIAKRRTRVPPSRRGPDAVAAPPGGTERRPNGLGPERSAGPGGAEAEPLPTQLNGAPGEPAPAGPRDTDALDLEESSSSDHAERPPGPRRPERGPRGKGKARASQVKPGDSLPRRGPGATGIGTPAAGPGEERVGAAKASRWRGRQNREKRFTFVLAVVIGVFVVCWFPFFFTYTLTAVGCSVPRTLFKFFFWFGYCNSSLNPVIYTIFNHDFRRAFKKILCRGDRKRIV
- Procedure summary: Antagonist activity at human recombinant adrenergic alpha2A receptor expressed in CHO cells
- Type: functional, cell-based
Readout type: pKb
Answer with a bare number; do not write a unit.

Example entries begin here.
c1ccc(OC(C2=NCCN2)c2ccccc2)cc1 (centres undefined)	6.1
C=CCc1ccccc1OC(C)C1=NCCN1 (centres undefined)	7.4
CC(Oc1ccccc1)C1=NCCN1 (centres undefined)	7.01

Next compound, pKb to be filled in.
Per the records, this compound ( c1ccc2c(c1)OCC(C1=NCCN1)O2 (centres undefined) ) has pKb equal to 7.73

----------
# Lookup of reported pKi keyed by entry
- Measured on: Alpha-2B adrenergic receptor (Homo sapiens, UniProt P18089)
- Procedure summary: Displacement of [3H]RS79948-197 from human recombinant adrenergic alpha2B receptor expressed in CHO cells
API: returns pKi as number; meaning -log10 of concentration in mol/L.

Example entries begin here.
COC1(C2=NCCN2)COc2cccc(-c3ccccc3)c2O1 (stereo unspecified)	5.97
c1ccc(-c2ccc3c(c2)OC(C2=NCCN2)CO3)cc1 (stereo unspecified)	6.00
c1ccc(-c2ccc3c(c2)OCC(C2=NCCN2)O3)cc1 (stereo unspecified)	5.78
CC(Oc1ccccc1/C=N/OCc1ccccc1)C1=NCCN1 (stereo unspecified)	6.06
c1ccc(-c2cccc3c2OCC(C2=NCCN2)O3)cc1 (stereo unspecified)	5.97

pKi value, target or system Alpha-2B adrenergic receptor (Homo sapiens, UniProt P18089), for CC(Oc1ccccc1C1CCCCC1)C1=NCCN1 (stereo unspecified) : 6.72

pKi value, target or system Alpha-2B adrenergic receptor (Homo sapiens, UniProt P18089), for c1ccc(OC(C2=NCCN2)c2ccccc2)cc1 (stereo unspecified) : 7.32

pKi value, target or system Alpha-2B adrenergic receptor (Homo sapiens, UniProt P18089), for CCO/N=C/c1ccccc1OC(C)C1=NCCN1 (stereo unspecified) : 6.35

pKi value, target or system Alpha-2B adrenergic receptor (Homo sapiens, UniProt P18089), for CC(Oc1ccccc1/C=N/O)C1=NCCN1 (stereo unspecified) : 6.15

pKi value, target or system Alpha-2B adrenergic receptor (Homo sapiens, UniProt P18089), for CC(Oc1ccccc1)C1=NCCN1 (stereo unspecified) : 6.78

pKi value, target or system Alpha-2B adrenergic receptor (Homo sapiens, UniProt P18089), for C=CCc1ccccc1OC(C)C1=NCCN1 (stereo unspecified) : 6.47
